- subject.of.test: MMP14 in the MDA-MB-231-derived extracellular vesicles (Homo sapiens)
- Construct: in terms of intact MMP14 with a molecular weight of 70 kDa
- test.name: Digital detection of MDA-MB-231-derived extracellular vesicles through MMP14 activity in wells (microcompartments)
- Format: biochemical
- run.parameters: Example 38, 4 hr, at a concentration of x1, 50 fL
No end group written: not given here. *: point of attachment. 5FAM = O=C1OC2(c3ccc(O)cc3Oc3cc(O)ccc32)c2ccc(C(=O)*)cc21; TQ2 = quencher
The reader will find reported Extracellular vesicle concentration values listed item by item below.

- substance: "TQ2-LAPLGLQRRK(5-FAM) (TQ2-LAPLGLQRRK(5FAM)) [Custom #11]"
  Extracellular vesicle concentration, mL⁻¹: "1.087e+10"
- substance: "TQ2-WYPAGLRMVK(5-FAM) (TQ2-WYPAGLRMVK(5FAM)) [Custom #13]"
  Extracellular vesicle concentration, mL⁻¹: "1.091e+10"
- substance: "TQ2-FMPLGLRGIK(5-FAM) (TQ2-FMPLGLRGIK(5FAM)) [Custom #12]"
  Extracellular vesicle concentration, mL⁻¹: "1.0377e+10"
- substance: "TQ2-WPHGSLQAAK(5-FAM) (TQ2-WPHGSLQAAK(5FAM)) [Custom #16]"
  Extracellular vesicle concentration, mL⁻¹: "1.353e+09"
- substance: "TQ2-YPPRPLLARK(5-FAM) (TQ2-YPPRPLLARK(5FAM)) [Custom #15]"
  Extracellular vesicle concentration, mL⁻¹: "9.986e+09"
- substance: "TQ2-DLPAGLQARK(5-FAM) (TQ2-DLPAGLQARK(5FAM)) [Custom #14]"
  Extracellular vesicle concentration, mL⁻¹: "1.968e+10"

* * *

The reader will find reported Expected value λ values listed item by item below.
- subject.of.test: MMP14 in the MDA-MB-231-derived extracellular vesicles (Homo sapiens)
- Construct: in terms of intact MMP14 with a molecular weight of 70 kDa
- test.name: Digital detection of MDA-MB-231-derived extracellular vesicles through MMP14 activity in wells (microcompartments)
- Assay type: biochemical
- run.parameters: Example 38, EV 2.5 μg/mL, reporter 5 μM, 30° C., 24 hr
No end group written: not given here. *: point of attachment. 5FAM = O=C1OC2(c3ccc(O)cc3Oc3cc(O)ccc32)c2ccc(C(=O)*)cc21; TQ2 = quencher

- substance: "TQ2-FMPLGLRGIK(5-FAM) (TQ2-FMPLGLRGIK(5FAM)) [Custom #12]"
  subject.of.test: "MMP14 in the MDA-MB-231-derived extracellular vesicles (Homo sapiens)"
  Expected value λ: 0.308
- substance: "TQ2-WPHGSLQAAK(5-FAM) (TQ2-WPHGSLQAAK(5FAM)) [Custom #16]"
  subject.of.test: "MMP14 in the MDA-MB-231-derived extracellular vesicles (Homo sapiens)"
  Expected value λ: 0.09807
- substance: "TQ2-LAPLGLQRRK(5-FAM) (TQ2-LAPLGLQRRK(5FAM)) [Custom #11]"
  subject.of.test: "MMP14 in the MDA-MB-231-derived extracellular vesicles (Homo sapiens)"
  Expected value λ: 0.2915
- substance: "TQ2-DLPAGLQARK(5-FAM) (TQ2-DLPAGLQARK(5FAM)) [Custom #14]"
  subject.of.test: "MMP14 in the MDA-MB-231-derived extracellular vesicles (Homo sapiens)"
  Expected value λ: 0.3927
- substance: "TQ2-YPPRPLLARK(5-FAM) (TQ2-YPPRPLLARK(5FAM)) [Custom #15]"
  subject.of.test: "MMP14 in the MDA-MB-231-derived extracellular vesicles (Homo sapiens)"
  Expected value λ: 0.2862
- substance: "TQ2-WYPAGLRMVK(5-FAM) (TQ2-WYPAGLRMVK(5FAM)) [Custom #13]"
  subject.of.test: "MMP14 in the MDA-MB-231-derived extracellular vesicles (Homo sapiens)"
  Expected value λ: 0.2626

* * *

- subject.of.test: MMP14 in the MDA-MB-231-derived extracellular vesicles (Homo sapiens, UniProt P50281)
- Construct: in terms of intact MMP14 with a molecular weight of 70 kDa
- test.name: Evaluation of MMP14 activity of MDA-MB-231-derived extracellular vesicles with 96-well plate
- Format: biochemical
- run.parameters: MP, 1.25 μM with 5 μM Custom #2TF3
No end group written: not given here. *: point of attachment. 5FAM = O=C1OC2(c3ccc(O)cc3Oc3cc(O)ccc32)c2ccc(C(=O)*)cc21; TQ2 = quencher
endpoint.name: Fluorescence change after 2 hours of reaction at 30° C.

- substance: "TQ2-DLPAGLQARK(5-FAM) (TQ2-DLPAGLQARK(5FAM)) [Custom #14]"
  observed.value: "9,504 ΔRFU"
- substance: "TQ2-YPPRPLLARK(5-FAM) (TQ2-YPPRPLLARK(5FAM)) [Custom #15]"
  observed.value: "9,131 ΔRFU"
- substance: "TQ2-WPHGSLQAAK(5-FAM) (TQ2-WPHGSLQAAK(5FAM)) [Custom #16]"
  observed.value: "852 ΔRFU"
- substance: "TQ2-FMPLGLRGIK(5-FAM) (TQ2-FMPLGLRGIK(5FAM)) [Custom #12]"
  observed.value: "13,343 ΔRFU"
- substance: "TQ2-WYPAGLRMVK(5-FAM) (TQ2-WYPAGLRMVK(5FAM)) [Custom #13]"
  observed.value: "7,073 ΔRFU"
- substance: "TQ2-LAPLGLQRRK(5-FAM) (TQ2-LAPLGLQRRK(5FAM)) [Custom #11]"
  observed.value: "12,156 ΔRFU"

* * *

The reader will find reported Expected value λ values listed item by item below.
- System: MMP in the MDA-MB-231-derived extracellular vesicles
- test.name: Digital detection of MDA-MB-231-derived extracellular vesicles through MMP activity in wells (SB substrates)
- Type: biochemical, Human
- run.parameters: Example 35, 30° C., 6 h, EV 1/4 a.u.
*: point of attachment. 5FAM = O=C1OC2(c3ccc(O)cc3Oc3cc(O)ccc32)c2ccc(C(=O)*)cc21

- substance: "QXL520-Pro-Leu-Gly-Met-Trp-Ser-Arg-Lys(5-FAM)-NH2 (QXL520-PLGMWSRK(5FAM)-NH2) [SB6]"
  Expected value λ: 0.5449
- substance: "QXL520-Pro-Leu-Ala-Leu-Trp-Ala-Arg-Lys(5-FAM)-NH2 (QXL520-PLALWARK(5FAM)-NH2) [SB2]"
  Expected value λ: 0.3545
- substance: "QXL520-Arg-Pro-Leu-Ala-Leu-Trp-Arg-Lys(5-FAM)-NH2 (QXL520-RPLALWRK(5FAM)-NH2) [SB9]"
  Expected value λ: 0.2881
- substance: "QXL520-Pro-Tyr-Ala-Tyr-Trp-Met-Arg-Lys(5-FAM)-NH2 (QXL520-PYAYWMRK(5FAM)-NH2) [SB7]"
  Expected value λ: 0.3689

* * *

- subject.of.test: MMP14 in the MDA-MB-231-derived extracellular vesicles (Homo sapiens, UniProt P50281)
- Construct: in terms of intact MMP14 with a molecular weight of 70 kDa
- test.name: Digital detection of MDA-MB-231-derived extracellular vesicles through MMP14 activity in wells (microcompartments)
- Type: biochemical
- run.parameters: Example 38, EV 2.5 μg/mL, reporter 5 μM, 30° C., 4 hr
No end group written: not given here. *: point of attachment. 5FAM = O=C1OC2(c3ccc(O)cc3Oc3cc(O)ccc32)c2ccc(C(=O)*)cc21; TQ2 = quencher

- substance: "TQ2-DLPAGLQARK(5-FAM) (TQ2-DLPAGLQARK(5FAM)) [Custom #14]"
  Number of positives: "6,120"
- substance: "TQ2-LAPLGLQRRK(5-FAM) (TQ2-LAPLGLQRRK(5FAM)) [Custom #11]"
  Number of positives: "3,566"
- substance: "TQ2-WPHGSLQAAK(5-FAM) (TQ2-WPHGSLQAAK(5FAM)) [Custom #16]"
  Number of positives: 471
- substance: "TQ2-FMPLGLRGIK(5-FAM) (TQ2-FMPLGLRGIK(5FAM)) [Custom #12]"
  Number of positives: "3,416"
- substance: "TQ2-YPPRPLLARK(5-FAM) (TQ2-YPPRPLLARK(5FAM)) [Custom #15]"
  Number of positives: "3,295"
- substance: "TQ2-WYPAGLRMVK(5-FAM) (TQ2-WYPAGLRMVK(5FAM)) [Custom #13]"
  Number of positives: "3,573"

* * *

- Tested on: MMP in the A549-derived extracellular vesicles
- test.name: Digital detection of A549-derived extracellular vesicles through MMP activity in wells (SB substrates)
- Assay type: biochemical, Human
- run.parameters: Example 36, EV 5 μg/mL, reporter 5 μM, 30° C., 4 hr
*: point of attachment. 5FAM = O=C1OC2(c3ccc(O)cc3Oc3cc(O)ccc32)c2ccc(C(=O)*)cc21
endpoint.name: Number of positives

- substance: "QXL520-Pro-Tyr-Ala-Tyr-Trp-Met-Arg-Lys(5-FAM)-NH2 (QXL520-PYAYWMRK(5FAM)-NH2) [SB7]"
  subject.of.test: "MMP in the A549-derived extracellular vesicles"
  observed.value: 395
- substance: "QXL520-Pro-Leu-Gly-Met-Trp-Ser-Arg-Lys(5-FAM)-NH2 (QXL520-PLGMWSRK(5FAM)-NH2) [SB6]"
  subject.of.test: "MMP in the A549-derived extracellular vesicles"
  observed.value: "1,911"
- substance: "QXL520-Pro-Leu-Ala-Leu-Trp-Ala-Arg-Lys(5-FAM)-NH2 (QXL520-PLALWARK(5FAM)-NH2) [SB2]"
  subject.of.test: "MMP in the A549-derived extracellular vesicles"
  observed.value: "1,823"
- substance: "QXL520-Arg-Pro-Leu-Ala-Leu-Trp-Arg-Lys(5-FAM)-NH2 (QXL520-RPLALWRK(5FAM)-NH2) [SB9]"
  subject.of.test: "MMP in the A549-derived extracellular vesicles"
  observed.value: "1,594"

Where these numbers come from: patent US20250290928A1
